- Test system: Hh-signalling cascade
- protocol: Inhibition of SHh-induced alkaline phosphatase in C3H10T1/2 cells (Hh-signalling cascade inhibition)
- Format: cell-based
- test.conditions: Mus musculus, C3H 10T1/2, half maximal inhibition of SHh (0.3 μg/ml) stimulation of cell alkaline phosphatase
Quick reference for IC50 among some compounds
measurement.kind: IC50

{"compound": "Cc1nn(CCC(=O)NCc2ccco2)c(=O)c2nn(-c3ccccc3)c(C)c12 [I-1020]", "endpoint.result": "< 5 µM"}
{"compound": "CCOCCCNC(=O)C1CCN(C(=O)c2cc3sccc3n2Cc2ccc(F)cc2)CC1 [V-1039]", "endpoint.result": "< 0.5 µM"}
{"compound": "CS(=O)(=O)N1CCCc2cc(C(=O)Nc3ccc4c(c3)OCO4)ccc21 [VII-1005]", "endpoint.result": "< 0.5 µM"}
{"compound": "CN1CCN(C(=O)C2CCN(C(=O)c3cc4sccc4n3Cc3ccccc3F)CC2)CC1 [V-1051]", "endpoint.result": "< 0.5 µM"}
{"compound": "CCOc1ccc(NC(=O)c2ccnc(N3CCC(C(=O)Nc4ccc(C)c(C)c4)CC3)c2)cc1 [VI-1002]", "endpoint.result": "< 5 µM"}
{"compound": "CN1CCN(C(=O)C2CCN(C(=O)c3cc4sccc4n3Cc3ccc(N(C)C)cc3)CC2)CC1 [V-1054]", "endpoint.result": "< 0.5 µM"}
{"compound": "Cc1nn(CCC(=O)NCc2cccnc2)c(=O)c2nn(-c3ccccc3)c(C)c12 [I-1019]", "endpoint.result": "< 5 µM"}
{"compound": "COCCCNC(=O)C1CCN(C(=O)c2cc3sccc3n2Cc2ccc(Cl)cc2)CC1 [V-1047]", "endpoint.result": "< 0.5 µM"}
{"compound": "CCN(CC)CCCNC(=O)C1CCN(C(=O)c2cc3sccc3n2Cc2ccc(F)cc2)CC1 [V-1032]", "endpoint.result": "< 0.5 µM"}
{"compound": "COc1ccc(C(=O)Nc2ccc(-c3cn4ccccc4n3)cc2)cc1 [III-1006]", "endpoint.result": "< 5 µM"}
{"compound": "CCN1CCN(C(=O)CCCn2nc(C)c3c(C)n(-c4ccc(C)cc4)nc3c2=O)CC1 [I-1024]", "endpoint.result": "< 50 µM"}
{"compound": "O=C(c1cc2sccc2n1Cc1ccc(Cl)cc1)N1CCC(C(=O)N2CCCCCC2)CC1 [V-1043]", "endpoint.result": "< 5 µM"}
{"compound": "Cc1ccc(NC(=O)c2ccc3c(c2)CCCN3S(=O)(=O)c2ccc(Cl)cc2)cc1C [VII-1017]", "endpoint.result": "< 0.5 µM"}
{"compound": "COc1ccc(CNC(=O)CN2C(=O)CSc3c2c(C)nn3-c2ccccc2)cc1 [II-1007]", "endpoint.result": "< 50 µM"}
{"compound": "CN1CCN(C(=O)C2CCN(C(=O)c3cc4sccc4n3Cc3ccccc3Cl)CC2)CC1 [V-1052]", "endpoint.result": "< 0.5 µM"}
{"compound": "Cc1nn(CCC(=O)N2CCOCC2)c(=O)c2nn(-c3ccccc3)c(C)c12 [I-1021]", "endpoint.result": "< 5 µM"}
{"compound": "CCS(=O)(=O)N1CCCc2cc(C(=O)Nc3ccccc3F)ccc21 [VII-1025]", "endpoint.result": "< 5 µM"}
{"compound": "CCC(C(=O)N1CCOCC1)n1nc(C)c2c(C)n(-c3ccccc3)nc2c1=O (stereo not drawn) [I-1015]", "endpoint.result": "< 5 µM"}

* * *

- Tested on: Hh-signalling cascade
- protocol: Inhibition of SHh-induced alkaline phosphatase in C3H10T1/2 cells (Hh-signalling cascade inhibition)
- Format: cell-based
- test.conditions: Mus musculus, C3H 10T1/2, half maximal inhibition of SHh (0.3 μg/ml) stimulation of cell alkaline phosphatase

{"compound": "COc1ccc(NC(=O)CCCN2C(=O)CSc3c2c(C)nn3-c2ccccc2)cc1", "target.under.test": "Hh-signalling cascade", "IC50": "< 50 µM"}
{"compound": "Cc1nn(C(C)C(=O)N2CCN(c3ccccc3F)CC2)c(=O)c2nn(-c3ccccc3)c(C)c12 (centres unmarked)", "target.under.test": "Hh-signalling cascade", "IC50": "< 0.5 µM"}
{"compound": "COc1cccc(N2CCN(C(=O)Cn3nc(C)c4c(C)n(-c5ccccc5)nc4c3=O)CC2)c1", "target.under.test": "Hh-signalling cascade", "IC50": "< 0.5 µM"}
{"compound": "CCOc1ccc(NC(=O)c2ccnc(N3CCC(C(=O)Nc4cccc(SC)c4)CC3)c2)cc1", "target.under.test": "Hh-signalling cascade", "IC50": "< 5 µM"}
{"compound": "Cc1cccc(N2CCN(C(=O)Cn3nc(C)c4c(C)n(-c5ccccc5)nc4c3=O)CC2)c1C", "target.under.test": "Hh-signalling cascade", "IC50": "< 0.5 µM"}
{"compound": "Cc1cccc(N2CCN(C(=O)C(C)n3nc(C)c4c(C)n(-c5ccccc5)nc4c3=O)CC2)c1C (centres unmarked)", "target.under.test": "Hh-signalling cascade", "IC50": "< 0.5 µM"}
{"compound": "CN1CCN(C(=O)C2CCN(C(=O)c3cc4sccc4n3Cc3ccc4c(c3)OCO4)CC2)CC1", "target.under.test": "Hh-signalling cascade", "IC50": "< 0.5 µM"}
{"compound": "Cc1nn(CC(=O)N2CCN(c3ccccc3)CC2)c(=O)c2nn(-c3ccccc3)c(C)c12", "target.under.test": "Hh-signalling cascade", "IC50": "< 0.5 µM"}
{"compound": "Cc1ccc(NC(=O)c2ccc3c(c2)CCCN3S(=O)(=O)c2ccc(Br)cc2)cc1", "target.under.test": "Hh-signalling cascade", "IC50": "< 5 µM"}
{"compound": "Cc1nn(CCCC(=O)N2CCOCC2)c(=O)c2nn(-c3ccccc3)c(C)c12", "target.under.test": "Hh-signalling cascade", "IC50": "< 50 µM"}
{"compound": "Cc1nn(-c2ccccc2)c2c1N(CC(=O)NC(C)C)C(=O)CS2", "target.under.test": "Hh-signalling cascade", "IC50": "> 50 µM"}
{"compound": "O=C(NCc1ccccn1)C1CCN(C(=O)c2cc3sccc3n2Cc2ccc(Cl)cc2)CC1", "target.under.test": "Hh-signalling cascade", "IC50": "< 5 µM"}
{"compound": "CN1CCc2c(sc(NC(=O)c3cccc(C(F)(F)F)c3)c2-c2nc3ccccc3s2)C1", "target.under.test": "Hh-signalling cascade", "IC50": "< 50 µM"}
{"compound": "CN1CCN(C(=O)C2CCN(C(=O)c3cc4sccc4n3Cc3ccc(F)cc3)CC2)CC1", "target.under.test": "Hh-signalling cascade", "IC50": "< 0.5 µM"}
{"compound": "O=C(Nc1ccc(-c2cn3cccnc3n2)cc1)C1CCCC1", "target.under.test": "Hh-signalling cascade", "IC50": "< 50 µM"}
{"compound": "O=C(NCc1cccnc1)C1CCN(C(=O)c2cc3sccc3n2Cc2ccc(F)cc2)CC1", "target.under.test": "Hh-signalling cascade", "IC50": "< 5 µM"}
{"compound": "Cc1ccc(-n2nc3c(=O)n(CC(=O)NCc4ccc(C)o4)nc(C)c3c2C)cc1", "target.under.test": "Hh-signalling cascade", "IC50": "< 5 µM"}

* * *

- protocol: Pharmacokinetic investigation in mice (PO and IP)
- Assay type: in vivo, mice of BALB/c line
- test.conditions: BALB/c, mouse, plasma, IP, 100 mg/Kg, read-out: T½

{"input.smiles": "CN1CCc2c(sc(NC(=O)C3CCCCC3)c2-c2nc3ccccc3s2)C1.Cl", "half-life": "4.9 h"}

* * *

- Test system: Hh-signalling cascade
- protocol: Inhibition of SHh-induced alkaline phosphatase in C3H10T1/2 cells (Hh-signalling cascade inhibition)
- Format: cell-based
- test.conditions: half maximal inhibition of SHh (0.3 μg/ml) stimulation of cell alkaline phosphatase
pIC50: −log10 of the molar value.
measurement.kind: pIC50

{"molecule": "O=C(c1cc2sccc2n1Cc1ccc(Cl)cc1)N1CCC(C(=O)N2CCCC2)CC1 [V-1044]", "measurement.kind": "pIC50", "endpoint.result": "> 6.30"}
{"molecule": "O=C(c1cc2sccc2n1Cc1ccc(Cl)cc1)N1CCC(C(=O)N2CCCC2)CC1 [V-1027]", "measurement.kind": "pIC50", "endpoint.result": "> 5.30"}

* * *

- Test system: Hh-signalling cascade
- protocol: Inhibition of SHh-induced alkaline phosphatase in C3H10T1/2 cells (Hh-signalling cascade inhibition)
- Type: cell-based
- test.conditions: Mus musculus, C3H 10T1/2, half maximal inhibition of SHh (0.3 μg/ml) stimulation of cell alkaline phosphatase
The following molecules are shown together with reported IC50 values.
measurement.kind: IC50

{"molecule": "CNC(=O)CN1C(=O)CSc2c1c(C)nn2-c1ccccc1", "endpoint.result": "> 50000 nM"}
{"molecule": "O=C(Nc1ccc(-c2cn3ccccc3n2)cc1)c1cccs1", "endpoint.result": "< 5000 nM"}
{"molecule": "Cc1nn(-c2ccccc2)c2c1N(CCCC(=O)N1CCN(c3ccccn3)CC1)C(=O)CS2", "endpoint.result": "< 500 nM"}
{"molecule": "CN1CCc2c(sc(NC(=O)C3CC3)c2-c2nc3ccccc3s2)C1", "endpoint.result": "< 5000 nM"}
{"molecule": "COc1cccc(C(=O)Nc2ccc(-c3cn4ccccc4n3)cc2)c1", "endpoint.result": "< 500 nM"}
{"molecule": "COc1ccc(Cn2c(C(=O)N3CCC(C(=O)N4CCN(C)CC4)CC3)cc3sccc32)cc1", "endpoint.result": "< 500 nM"}
{"molecule": "Cc1nn(CC(=O)N2CCN(c3ccccc3F)CC2)c(=O)c2nn(-c3ccccc3)c(C)c12", "endpoint.result": "< 500 nM"}
{"molecule": "Cc1nn(-c2ccccc2)c2c1N(CCCC(=O)N1CCN(c3ccccc3)CC1)C(=O)CS2", "endpoint.result": "< 500 nM"}
{"molecule": "Cc1ccc(CNC(=O)C2CCN(C(=O)c3cc4sccc4n3Cc3ccc(F)cc3)CC2)cc1", "endpoint.result": "< 500 nM"}
{"molecule": "COc1ccc(C(=O)Nc2cccc(-c3cn4c(C)cccc4n3)c2)cc1", "endpoint.result": "< 500 nM"}
{"molecule": "COc1ccc(C(=O)Nc2cccc(-c3cn4ccccc4n3)c2)cc1", "endpoint.result": "< 500 nM"}
{"molecule": "CCOc1ccc(NC(=O)c2ccnc(N3CCC(C(=O)NCCCc4ccccc4)CC3)c2)cc1", "endpoint.result": "< 500 nM"}
{"molecule": "COCCNC(=O)C1CCN(C(=O)c2cc3sccc3n2Cc2ccc(F)cc2)CC1", "endpoint.result": "< 500 nM"}
{"molecule": "Cc1ccn2cc(-c3cccc(NC(=O)c4sc(-c5ccccc5)nc4C)c3)nc2c1", "endpoint.result": "< 500 nM"}
{"molecule": "O=C(NCc1ccc(F)cc1)C1CCN(C(=O)c2cc3sccc3n2Cc2ccc(F)cc2)CC1", "endpoint.result": "< 50000 nM"}
{"molecule": "COC(=O)c1ccc(C(=O)Nc2sc3c(c2-c2nc4ccccc4s2)CCN(C(C)C)C3)cc1", "endpoint.result": "< 50000 nM"}
{"molecule": "Cc1nn(-c2ccccc2)c2c1N(CC(=O)Nc1cccc(C(F)(F)F)c1)C(=O)CS2", "endpoint.result": "< 500 nM"}
{"molecule": "CCOc1ccc(NC(=O)c2ccnc(N3CCC(C(=O)Nc4ccc(F)cc4)CC3)c2)cc1", "endpoint.result": "< 5000 nM"}
{"molecule": "Cc1ccc(-n2nc3c(=O)n(CC(=O)Nc4ccccc4F)nc(C)c3c2C)c(C)c1", "endpoint.result": "< 5000 nM"}
{"molecule": "O=C(NCCCN1CCCC1)C1CCN(C(=O)c2cc3sccc3n2Cc2ccc(F)cc2)CC1", "endpoint.result": "< 500 nM"}
{"molecule": "COc1ccc(NC(=O)c2ccc3c(c2)CCCN3S(=O)(=O)c2ccc(C)cc2)cc1", "endpoint.result": "< 5000 nM"}
{"molecule": "Cc1nn(-c2ccccc2)c2c1N(CC(=O)N1CCCC1)C(=O)CS2", "endpoint.result": "> 50000 nM"}
{"molecule": "CC(=O)Nc1ccc(-c2cn3ccccc3n2)cc1", "endpoint.result": "> 50000 nM"}
{"molecule": "CCN1CCCC1CNC(=O)C1CCN(C(=O)c2cc3sccc3n2Cc2ccc(F)cc2)CC1 (centres unmarked)", "endpoint.result": "< 500 nM"}
{"molecule": "COc1ccccc1C(=O)Nc1ccc(-c2cn3cccnc3n2)cc1", "endpoint.result": "< 500 nM"}
{"molecule": "O=C(NCCN1CCOCC1)C1CCN(C(=O)c2cc3sccc3n2Cc2ccc(F)cc2F)CC1", "endpoint.result": "< 500 nM"}
{"molecule": "CN1CCN(C(=O)C2CCN(C(=O)c3cc4sccc4n3Cc3cccc(Cl)c3)CC2)CC1", "endpoint.result": "< 500 nM"}
{"molecule": "CCC(C(=O)NC1CC1)n1nc(C)c2c(C)n(-c3ccc(C)cc3)nc2c1=O (centres unmarked)", "endpoint.result": "< 5000 nM"}
{"molecule": "Cc1cc(C)cc(NC(=O)C2CCN(C(=O)c3cc4sccc4n3Cc3ccc(F)cc3)CC2)c1", "endpoint.result": "< 500 nM"}
{"molecule": "Cc1cccn2cc(-c3ccc(NC(=O)c4ccccc4Br)cc3)nc12", "endpoint.result": "< 500 nM"}
{"molecule": "Cc1nn(CC(=O)N2CCN(c3cccc(Cl)c3)CC2)c(=O)c2nn(-c3ccccc3)c(C)c12", "endpoint.result": "< 500 nM"}
{"molecule": "CCC(=O)Nc1ccc(-c2cn3ccccc3n2)cc1", "endpoint.result": "< 50000 nM"}
{"molecule": "Cc1nn(CCCC(=O)Nc2ccc(C(C)C)cc2)c(=O)c2nn(-c3ccccc3)c(C)c12", "endpoint.result": "< 50000 nM"}
{"molecule": "Cc1nn(CC(=O)N2CCN(c3ccc(F)cc3)CC2)c(=O)c2nn(-c3ccccc3)c(C)c12", "endpoint.result": "< 500 nM"}
{"molecule": "Cc1nn(C(C)C(=O)N2CCN(C3CCCCC3)CC2)c(=O)c2nn(-c3ccccc3)c(C)c12 (centres unmarked)", "endpoint.result": "< 500 nM"}

This collection of values is drawn from patent US8486945B2.
